target: Nuclear receptor subfamily 1 group I member 2 (Rattus norvegicus); test: qHTS assay for small molecule activators of the rat pregnane X receptor (rPXR) signaling pathway (AID 651751); details: rPXR reporter cells, luciferase (One-Glo), 24 h; note: 0% is about no effect
Parameter max response: see the listing below.
readout.type: max response (%)

> print(dat)
                                    compound  readout.type  numeric.readout
 1                     CCSC(=O)N(CC)C1CCCCC1  max response            -10.9
 2  O=C(O)C(F)(F)C(F)(F)C(F)(F)C(F)(F)C(F)(F)F  max response             2.05
 3                         CCSCCSP(=O)(OC)OC  max response            -1.46
 4                CNC(=O)Oc1ccc(N(C)C)c(C)c1  max response             2.85
 5        COP(=O)(OC)SCn1c(=O)oc2cc(Cl)cnc21  max response            -7.83
 6   O=C1C=C2C(=CCOC2O)O1 (stereo not drawn)  max response            -14.8
 7                      c1cc2c3c(cccc3c1)CC2  max response           0.0529
 8                         O=C=Nc1ccc(Cl)cc1  max response             8.51
 9                   Clc1ccc(C(Cl)(Cl)Cl)cc1  max response             2.13
10  CC(C)(C)OOC(C)(C)c1ccc(C(C)(C)OOC(C)(C)C)cc1  max response             4.08
11  CCC[CH2][Sn]([CH2]CCC)([O]C(C)=O)[O]C(C)=O  max response           -0.354
12  CS/C(C)=N/OC(=O)N(C)SN(C)C(=O)O/N=C(\C)SC  max response            -5.16
13  CCOP(=O)(NC(C)C)Oc1ccc(S(C)=O)c(C)c1 (stereo not drawn)  max response            -1.03

----------
assay: Cell Viability - LYMP2-005 (AID 967); conditions: LYMP2-005 lymphoblastoid cell viability; series mostly up to 92.2 µM;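 note: cells exposed to compound for 24 h at 37 °C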
Inconclusive results are not listed. Active and inactive are the calls of the source. The call rests on the fitted dose curve; in most records, active means well fitted cell-killing curve with a large enough effect; inconclusive means small, poorly fitted or top-dose-only effect, or effect the other way; inactive means no such curve, though single readings can be large or run the other way.
Outcome codes: True for active, False for inactive

> print(dat)
                                   molecule  group
1                         CCCCCCCCn1sccc1=O   True
2               Oc1c(Br)c(Br)c(Br)c(Br)c1Br  False
3  CN1[C@H]2CC(OC(=O)[C@H](CO)c3ccccc3)C[C@H]1[C@H]1O[C@H]12 (some centres undefined)  False
4  O=C1C2(Cl)C3(Cl)C4(Cl)C(Cl)(Cl)C5(Cl)C3(Cl)C1(Cl)C5(Cl)C24Cl (centres undefined)   True

----------
tested on: CP238; assay: qHTS profiling for inhibitors of Plasmodium falciparum proliferation (AID 504749); note: nearly all actives have a fitted effect of over 60% in size; details: P. falciparum in erythrocytes, SYBR Green DNA, 72 h; series mostly up to 28.7 µM
Results filed as inconclusive are left out. Activity calls are given as the source filed them. Calls follow the shape of the dose curve; as a rule, active = well fitted inhibition curve with a large enough effect; inconclusive = small, poorly fitted or top-dose-only effect; inactive = flat fitted curve, though single readings scatter.
Outcomes: 1 for active, -1 for inactive

molecule	system	group
CCCCCCC(=O)O[C@H]1CC[C@H]2[C@@H]3CCC4CC(=O)C=C(C)[C@]4(C)[C@H]3CC[C@]12C (some centres undefined)	CP238	-1
C[C@]12CC[C@H]3[C@@H](CC[C@@]45O[C@@H]4C(=O)C(C#N)C[C@]35C)[C@@H]1CC[C@@H]2O (some centres undefined)	CP238	-1
CC1(C)S[C@@H]2[C@H](N)C(=O)N2C1C(=O)O (some centres undefined)	CP238	-1
C=CC[C@]1(O)CCC2C3CCC4=CCCCC4C3CCC21C (some centres undefined)	CP238	-1
O=C1CC2OCC=C3CN4CC[C@]56c7ccccc7N1C5C2[C@H]3C[C@H]46 (some centres undefined)	CP238	1
O=[N+]([O-])OC1CO[C@H]2C(O[N+](=O)[O-])COC12 (some centres undefined)	CP238	-1
O=C1CC2OCC=C3CN4CCC56c7ccccc7N1C5[C@H]2[C@H]3C[C@H]46 (some centres undefined) (tested in a mixture with another compound)	CP238	-1
CC1(C)[C@@H](C=C(Cl)Cl)[C@@H]1C(=O)OCc1c(F)c(F)cc(F)c1F	CP238	-1
CC(=O)Oc1ccc2c3c1OC1[C@@H](OC(C)=O)C=C[C@H]4[C@H](C2)N(C)CC[C@]314 (some centres undefined)	CP238	-1

Hello, the source for this data is PubChem BioAssay (NCATS), in case you need it.
